# Test system: α2A adrenergic receptor (Homo sapiens)
# Construct: expressed in transfected cells; host or cells: Chinese hamster lung cell line (membrane preparation)
# Sequence (P08913 1-465): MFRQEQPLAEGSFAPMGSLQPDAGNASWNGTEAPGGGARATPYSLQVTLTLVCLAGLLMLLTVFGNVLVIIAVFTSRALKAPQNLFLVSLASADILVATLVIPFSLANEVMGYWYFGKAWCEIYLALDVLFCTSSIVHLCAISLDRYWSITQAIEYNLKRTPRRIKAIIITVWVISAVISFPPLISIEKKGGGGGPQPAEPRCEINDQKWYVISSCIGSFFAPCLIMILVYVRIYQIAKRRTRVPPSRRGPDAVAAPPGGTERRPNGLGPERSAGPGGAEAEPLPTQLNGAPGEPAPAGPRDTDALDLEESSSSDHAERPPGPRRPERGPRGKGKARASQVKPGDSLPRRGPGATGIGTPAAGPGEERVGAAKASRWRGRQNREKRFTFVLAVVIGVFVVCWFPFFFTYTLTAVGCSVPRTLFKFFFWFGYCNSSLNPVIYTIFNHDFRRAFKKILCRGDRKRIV
# Procedure summary: Radioligand binding, α2A adrenergic receptor ([3H]rauwolscine)
pKi: −log10 of the molar value.
Metric: pKi

Batch request: pKi for each of the following molecules.
1. C=CCOc1cc(OC)c(CC(C)N)cc1OC (stereo not drawn) [MALM, 4-allyloxy-2,5-dimethoxyamphetamine]
2. COc1cc(OCC(F)(F)F)c(OC)cc1CC(C)N (stereo not drawn) [MTFEM]
3. COc1cc(OC(C)C)c(OC)cc1CC(C)N (stereo not drawn) [MIPM, 2,5-dimethoxy-4-isopropoxyamphetamine]

# output
["< 5.32", "< 5.32", "< 5.32"]
